Taken from paper PMC8629109.

target: mGluR2 (Homo sapiens); assay: GloSensor cAMP biosensor assay, mGluR2 PAM activity; conditions: read-out: EC50, mGluR2 PAM activity; in the presence of EC20 amount of L-glutamate; intracellular cAMP
QUANTITY_NAME: pEC50
Note on units: pEC50 is unitless, being -log10 of a concentration expressed in mol/L.

Request: What measured pEC50 goes with COc1cc(C(F)(F)F)ccc1OC[C@@H]1[C@H]2CN(Cc3nc4ncccc4n3C)C[C@@H]12 ?
Response: 5.11

* * *

# maps each entry to its IC50
molecular target: mGluR2 (Homo sapiens, UniProt Q14416); assay: Competitive binding assay with [3H]JNJ-46281222 in mGluR2 transfected CHO cells
Sequence (Q14416 19-872): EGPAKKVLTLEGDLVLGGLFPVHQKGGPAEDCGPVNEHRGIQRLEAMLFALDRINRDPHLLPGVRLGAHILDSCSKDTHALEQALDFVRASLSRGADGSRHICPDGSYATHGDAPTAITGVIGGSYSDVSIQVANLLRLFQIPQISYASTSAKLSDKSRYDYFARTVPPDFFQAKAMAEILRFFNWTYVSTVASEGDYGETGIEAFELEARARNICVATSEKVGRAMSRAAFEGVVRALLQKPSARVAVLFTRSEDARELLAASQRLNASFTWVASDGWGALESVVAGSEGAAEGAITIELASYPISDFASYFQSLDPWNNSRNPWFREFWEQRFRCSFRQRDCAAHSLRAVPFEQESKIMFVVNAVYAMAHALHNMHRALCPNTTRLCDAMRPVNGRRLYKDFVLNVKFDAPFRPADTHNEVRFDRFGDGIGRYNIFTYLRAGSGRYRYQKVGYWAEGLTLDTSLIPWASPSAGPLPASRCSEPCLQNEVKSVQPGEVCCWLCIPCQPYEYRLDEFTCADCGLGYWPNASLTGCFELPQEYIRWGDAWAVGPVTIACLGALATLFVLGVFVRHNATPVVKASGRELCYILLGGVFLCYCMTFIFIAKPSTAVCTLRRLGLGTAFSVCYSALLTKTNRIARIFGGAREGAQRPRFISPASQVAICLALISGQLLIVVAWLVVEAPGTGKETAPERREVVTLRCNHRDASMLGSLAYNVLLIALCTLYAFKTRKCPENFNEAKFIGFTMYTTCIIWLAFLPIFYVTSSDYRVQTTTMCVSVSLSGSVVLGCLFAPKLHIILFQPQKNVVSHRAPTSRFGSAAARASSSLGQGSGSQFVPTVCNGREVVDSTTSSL
The number alone won't do; follow it with the unit.

Request: What measured IC50 goes with COc1cc(C(F)(F)F)ccc1C1CCN(Cc2nc3nccc4c3n2CCC4)CC1 ?
Response: 10.5 nM

Request: What measured IC50 goes with COc1cc(C(F)(F)F)ccc1C1CCN(Cc2nc3ncccc3n2C)CC1 ?
Response: 7.6 nM
